- Tested on: TK-10 renal
- Assay: NCI-60 one-dose screen, 48 h (100 = growth as untreated, 0 = no growth, -100 = all killed)
- Experimental setup: 10 µM unless noted
About 83,000 compounds went through this panel and 20% of them were active in at least one assay; those are over-represented in the sample as a whole.
Reported values of growth for individual entries
Please reply with the bare figure in % and do not write the unit itself.

Solved cases (8 shown):
Nc1nc(Nc2cc(Cl)cc(Cl)c2)nn1S(=O)(=O)c1ccc2ccccc2c1; 63.5
C=C(C)[C@@H]1C[C@@H]2Cc3cc(F)ccc3N1O2; 97
Cc1ccc(-c2cc3nc(C(Cl)Cl)nc(-c4ccccc4C)n3n2)cc1; 54.8
COc1ccc(N2CCN(Cc3cc(C(=O)/C=C/c4c[nH]c5ccccc45)ccc3O)CC2)cc1; 117
CC(=O)Nc1ccc(S(=O)(=O)n2ccc(-c3ccc4c(c3)CCC(C)(C)O4)n2)cc1; 55.1
C=C1c2nc3ccccc3n2C=C(c2ccc(Cl)cc2)N1Cc1ccccc1; 119
CC(=O)Oc1csc(N(C(C)=O)c2cccc(C(F)(F)F)c2)n1; 108
N/C(=N\C(N)=N\c1nc2ccccc2s1)c1cccc(Br)c1; 157

## Task Could you tell me which growth is on file for CC(=O)Nc1ccc(/C=C/C(=O)c2ccccc2)cc1 ?
## Result 110

## Task Could you tell me which growth is on file for O=C(Nc1cccc(-n2cc(-c3ccncc3)c(-c3ccc(Cl)c(O)c3)n2)c1)Nc1cccc(C(F)(F)F)c1 ?
## Result 21.9

## Task Could you tell me which growth is on file for O=C(/C=C/c1ccccc1)c1cccc(O)c1 ?
## Result 109

## Task Could you tell me which growth is on file for COc1cc(NC(N)=NCCC(C)(C)c2ccc(C(F)(F)F)cc2)ncc1C#N ?
## Result 13.8

## Task Could you tell me which growth is on file for CC(=O)Oc1csc(N(C(C)=O)c2cc(C(=O)O)cc(C(=O)O)c2)n1 ?
## Result 105

---

- Test system: HCC-2998 colon
- Assay: NCI-60 one-dose screen, 48 h (100 = growth as untreated, 0 = no growth, -100 = all killed)
- Experimental setup: 10 µM unless noted
This is part of a sample that, as a whole, favours compounds with a hit. Of some 83,000 tested, about 20% had one in any assay.
Could you please mark 1 for values of growth below 80% and 0 for values at or above it?

// below: answered compounds
Cc1ccc(-c2cc3nc(-c4ccccc4)nc(C(Cl)Cl)n3n2)cc1; 1
Cc1ccc2nc(Cl)cc(=O)n2c1; 0
C=C[C@@H]1C[C@H](O)Cc2cc(F)ccc2N1; 0
CC(=O)Oc1cccc(S(=O)(=O)n2cc(C(=O)C(=O)Nc3ccncc3)c3ccccc32)c1; 0
Cc1nc2ncccc2nc1Nc1ccc(S(=O)(=O)Nc2cncs2)cc1; 0

## Task Please let me know if CCO/C=N/C1=C(C#N)C(c2ccc(Cl)cc2)c2c(c3ccccc3n(C)c2=O)O1 (stereo not drawn) shows growth below 80%.
## Result 0

## Task Please let me know if COc1ccc(NC(=O)CSc2nc(-c3ccc(OC)c(OC)c3)cc(-c3cc(OC)c(OC)c(OC)c3)n2)cc1 shows growth below 80%.
## Result 0

## Task Please let me know if O=[N+]([O-])c1cc(S(=O)(=O)Oc2ccccc2)ccc1Cl shows growth below 80%.
## Result 1
